Listed next: entries and their corresponding polymerase ribozyme fitness (log ratio).
B1: TPR 5TU (parent)
chain: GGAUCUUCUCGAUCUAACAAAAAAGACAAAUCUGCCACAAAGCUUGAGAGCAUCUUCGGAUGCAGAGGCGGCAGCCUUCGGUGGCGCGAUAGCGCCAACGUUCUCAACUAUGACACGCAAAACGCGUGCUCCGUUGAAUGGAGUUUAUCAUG

# Variants of: B1
# procedure_text: polymerase ribozyme fitness, log enrichment relative to wild type (log ratio); higher = more active; in vitro selection for triplet polymerase activity
Fewer inactive variants are shown than the library holds.
value_type: polymerase ribozyme fitness (log ratio)

# mutation_key, reported_result
measured = [
    ("A16U G83A A106G A107C C118U C123G C129G A150G", "≤ -4.2"),
    ("A37C G48A C51U G86C G88A", "≤ -4.2"),
    ("A17C A26G A41C C54A C72U C87A G100C G143U", "≤ -4.2"),
    ("C10U G11A A19U U55A C75G G83U", "≤ -4.2"),
    ("C27A C35A G84U C103G", "≤ -4.2"),
    ("A26C C51G G65A G74C G81U C93G A119U C132U G141C", "≤ -4.2"),
    ("G48U A49C C69G G86A C93U U139G A150G", "≤ -4.2"),
    ("G11A C14G A19U C27A U31C C118G", "≤ -4.2"),
    ("A28G A52C U55A G67C C149G", "≤ -4.2"),
    ("C18G A20C C32A A40C U53A A91G", "≤ -4.2"),
    ("A26U A49U C87A U134G", "≤ -4.2"),
]
